Taken from patent US4605614A.

assay-target: UniProt P00752
Sequence (P00752 8-246): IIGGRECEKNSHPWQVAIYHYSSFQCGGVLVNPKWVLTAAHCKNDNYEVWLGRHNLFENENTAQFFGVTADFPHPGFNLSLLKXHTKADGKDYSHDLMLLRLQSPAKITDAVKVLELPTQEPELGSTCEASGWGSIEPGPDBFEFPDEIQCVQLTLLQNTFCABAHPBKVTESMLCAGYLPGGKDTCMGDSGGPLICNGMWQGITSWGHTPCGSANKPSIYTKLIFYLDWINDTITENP
Assay type: biochemical, Pig
study-conditions: TABLE 4, CHA substrates; So = 0.54; pH 7.9; 37° C., 10 minutes; 1.0 BAEE-U/ml
measured-property: Selectivity KL, absorbance (O.D.) at 645 nm

molecule	assay-target	reported-result
NCCCC[C@H](NC(=O)[C@H](Cc1ccccc1)NC(=O)[C@H](N)CCC(=O)NCCc1ccccc1)C(=O)Nc1ccc(O)c(C(=O)O)c1	UniProt P00752	0.009 O.D.
Cc1ccc(S(=O)(=O)Oc2ccc(C[C@@H](N)C(=O)N[C@@H](CC(C)C)C(=O)N[C@@H](CCCCN)C(=O)Nc3ccc(O)c(C(=O)O)c3)cc2)cc1 [NPC-13, HD-Tyr(Tos)LeuLysCHA.2HCl]	UniProt P00752	0.004 O.D.
Cc1cc(C)c(S(=O)(=O)NCCCC[C@@H](N)C(=O)N[C@@H](Cc2ccccc2)C(=O)N[C@@H](CCCCN)C(=O)Nc2ccc(O)c(C(=O)O)c2)c(C)c1 [NPC-10, HD-Lys(Mst)PheLysCHA.2HCl]	UniProt P00752	0.010 O.D.
